Hey, just so you know, these numbers are from ChEMBL document CHEMBL1153032.

experiment: Aqueous solubility after 18 hrs at pH 7.4; assay type: physicochemical
measured.quantity: solubility at 18 h (µg/mL)

Known results for compounds:
>>> measured_result("COC(=O)C1CCN(c2ccc3c(=O)n(C(c4ccccc4)c4ccccc4)c(=O)n(C/C=C/COc4ccc(C(=O)O)cc4)c3c2)CC1")
30
>>> measured_result("Cc1ccc2c(=O)n(C(c3ccccc3)c3ccccc3)c(=O)n(C/C=C/COc3ccc(C(=O)O)cc3)c2c1")
40
>>> measured_result("CSc1ccc2c(=O)n(C(c3ccccc3)c3ccccc3)c(=O)n(C/C=C/COc3ccc(C(=O)O)cc3)c2c1")
26

1 = O=C(O)c1ccc(OC/C=C/Cn2c(=O)c3ccc(Cl)cc3n(C(c3ccccc3)c3ccccc3)c2=O)cc1
2 = O=C(O)c1ccc(OC/C=C/Cn2c(=O)c3ccccc3n(C(c3ccccc3)c3ccccc3)c2=O)cc1
Lookup: Of 1 and 2 , which shows the smaller solubility at 18 h value? Kindly give the label for the entry you pick.
Found: 1
(1: 28 µg/mL, 2: 51 µg/mL)

----------
assay: Aqueous solubility after 18 hrs at pH 7.4; type: physicochemical
measured.quantity: solubility at 18 h (µg/mL)

Known results for molecules:
>>> measured_result("COc1ccc2c(=O)n(C(c3ccccc3)c3ccccc3)c(=O)n(C/C=C/COc3ccc(C(=O)O)cc3)c2c1")
40
>>> measured_result("O=C(O)c1ccc(OC/C=C/Cn2c(=O)n(C(c3ccccc3)c3ccccc3)c(=O)c3ccc([N+](=O)[O-])cc32)cc1")
34
>>> measured_result("O=C(O)c1ccc(OC/C=C/Cn2c(=O)n(C(c3ccccc3)c3ccccc3)c(=O)c3ccc(N4CCOCC4)cc32)cc1")
48
>>> measured_result("O=C(O)c1ccc(OC/C=C/Cn2c(=O)c3cc(F)ccc3n(C(c3ccccc3)c3ccccc3)c2=O)cc1")
42
>>> measured_result("O=C(O)c1ccc(OC/C=C\\Cn2c(=O)c3ccc(Cl)cc3n(C(c3ccccc3)c3ccccc3)c2=O)cc1")
51

a = O=C(O)c1ccc(OC/C=C/Cn2c(=O)n(C(c3ccccc3)c3ccccc3)c(=O)c3ccc(Oc4ccccc4)cc32)cc1
b = O=C(O)c1ccc(OC/C=C\Cn2c(=O)c3ccccc3n(C(c3ccccc3)c3ccccc3)c2=O)cc1
Lookup: Which one would you say has the larger solubility at 18 h value: a , or b ? Kindly give the label for the entry you pick.
Found: b
(b: 37 µg/mL, a: 15 µg/mL)

----------
assay: Inhibition of cytosolic phospholipase A2alpha by GLU micelle assay
measured.quantity: IC50 (µM)

P = O=C(O)c1ccc(CCCc2c(CCNS(=O)(=O)Cc3ccc(Cl)c(Cl)c3)n(C(c3ccccc3)c3ccccc3)c3ccc(Cl)cc23)cc1 [EFIPLADIB]
Q = O=C(O)c1ccc(OCCn2c(=O)n(C(c3ccccc3)c3ccccc3)c(=O)c3ccc(Cl)cc32)cc1
Lookup: Of P and Q , which shows the smaller IC50 value? Kindly give the label for the entry you pick.
Found: P

I = CSc1ccc2c(=O)n(C(c3ccccc3)c3ccccc3)c(=O)n(C/C=C/COc3ccc(C(=O)O)cc3)c2c1
II = O=C(O)c1cccc(OC/C=C/Cn2c(=O)n(C(c3ccccc3)c3ccccc3)c(=O)c3ccc(Cl)cc32)c1
III = O=C(O)c1ccc(OC/C=C\Cn2c(=O)n(C(c3ccccc3)c3ccccc3)c(=O)c3ccccc32)cc1
IV = O=C(O)c1ccc(OCCCCCn2c(=O)n(C(c3ccccc3)c3ccccc3)c(=O)c3ccccc32)cc1
V = Cc1c(CCOc2ccc(C(=O)O)cc2)c2cc(Cl)ccc2n1C(c1ccccc1)c1ccccc1
Lookup: Which order do these items take when sorted by rising IC50? List them. Give me the labels in the order the question wants.
Found: I, V, IV, III, II
(I: 2 µM, V: 3 µM, IV: 30 µM, III: 44 µM, II: 100 µM)

----------
tested on: Blood; test: Inhibition of TXB2 production in calcium ionophore A-23187-stimulated Sprague-Dawley rat whole blood after 10 mins; format: functional, tissue-based
pIC50: −log10 of the molar value.
measured.quantity: pIC50

>>> measured_result("O=C(O)c1ccc(OC/C=C/Cn2c(=O)n(C(c3ccccc3)c3ccccc3)c(=O)c3ccc(Cl)cc32)cc1")
4.96
>>> measured_result("COc1ccc2c(=O)n(C(c3ccccc3)c3ccccc3)c(=O)n(C/C=C/COc3ccc(C(=O)O)cc3)c2c1")
5.05
>>> measured_result("O=C(O)c1ccc(OC/C=C/Cn2c(=O)c3ccccc3n(C(c3ccccc3)c3ccccc3)c2=O)cc1")
4.92

P = O=C(O)c1ccc(OC/C=C/Cn2c(=O)n(C(c3ccccc3)c3ccccc3)c(=O)c3ccc(-n4cncn4)cc32)cc1
Q = O=C(O)c1ccc(OC/C=C/Cn2c(=O)n(C(c3ccccc3)c3ccccc3)c(=O)c3ccc(F)cc32)cc1
Lookup: Of P and Q , which shows the smaller pIC50 value? Kindly give the label for the entry you pick.
Found: P

----------
tested on: MC9; experiment: Inhibition of LTB4 production in DNP-BSA-stimulated mouse MC9 cells at 5 uM treated 15 mins before DNP-BSA challenge measured after 4 mins; format: functional
measured.quantity: inhibition at 5 µM (%)
Write the value in % as a bare number.

Known results for compounds:
>>> measured_result("O=C(O)c1ccc(OCCn2c(=O)c3ccc(Cl)cc3n(C(c3ccccc3)c3ccccc3)c2=O)cc1")
93
>>> measured_result("O=C(O)c1ccc(OC/C=C/Cn2c(=O)n(C(c3ccccc3)c3ccccc3)c(=O)c3ccccc32)cc1")
97
>>> measured_result("Cc1c(CCOc2ccc(C(=O)O)cc2)c2cc(Cl)ccc2n1C(c1ccccc1)c1ccccc1")
96

Let's switch to this compound now.
Lookup: Field request: inhibition at 5 µM | item: O=C(O)c1ccc(OC/C=C/Cn2c(=O)n(C(c3ccccc3)c3ccccc3)c(=O)c3ccc([N+](=O)[O-])cc32)cc1
Found: 97

----------
assay: Permeability in buffer of pH 7.4 by PAMPA; assay type: ADME; settings: read-out: permeability
measured.quantity: Papp (×10⁻⁶ cm/s)

>>> measured_result("COC(=O)C1CCN(c2ccc3c(=O)n(C(c4ccccc4)c4ccccc4)c(=O)n(C/C=C/COc4ccc(C(=O)O)cc4)c3c2)CC1")
1
>>> measured_result("CSc1ccc2c(=O)n(C(c3ccccc3)c3ccccc3)c(=O)n(C/C=C/COc3ccc(C(=O)O)cc3)c2c1")
4.5
>>> measured_result("COc1ccc2c(=O)n(C(c3ccccc3)c3ccccc3)c(=O)n(C/C=C/COc3ccc(C(=O)O)cc3)c2c1")
1.8
>>> measured_result("O=C(O)c1ccc(OC/C=C/Cn2c(=O)n(C(c3ccccc3)c3ccccc3)c(=O)c3ccc([N+](=O)[O-])cc32)cc1")
2.6
>>> measured_result("O=C(O)c1ccc(OC/C=C/Cn2c(=O)n(C(c3ccccc3)c3ccccc3)c(=O)c3ccc(N4CCOCC4)cc32)cc1")
1
>>> measured_result("Cc1ccc2c(=O)n(C(c3ccccc3)c3ccccc3)c(=O)n(C/C=C/COc3ccc(C(=O)O)cc3)c2c1")
2

I = Nc1ccc2c(=O)n(C(c3ccccc3)c3ccccc3)c(=O)n(C/C=C/COc3ccc(C(=O)O)cc3)c2c1
II = O=C(O)c1ccc(OC/C=C/Cn2c(=O)n(C(c3ccccc3)c3ccccc3)c(=O)c3ccc(-n4cncn4)cc32)cc1
Lookup: Of I and II , which shows the smaller Papp value? Kindly give the label for the entry you pick.
Found: I

----------
test: Lipophilicity, log D at pH 7.4; type: physicochemical; details: buffer
measured.quantity: logD

Known results for compounds:
>>> measured_result("O=C(O)c1ccc(OC/C=C/Cn2c(=O)n(C(c3ccccc3)c3ccccc3)c(=O)c3ccc([N+](=O)[O-])cc32)cc1")
2.4
>>> measured_result("Nc1ccc2c(=O)n(C(c3ccccc3)c3ccccc3)c(=O)n(C/C=C/COc3ccc(C(=O)O)cc3)c2c1")
1.7
>>> measured_result("O=C(O)c1ccc(OC/C=C/Cn2c(=O)n(C(c3ccccc3)c3ccccc3)c(=O)c3ccc(-n4cncn4)cc32)cc1")
1.4

1 = CS(=O)(=O)c1ccc2c(=O)n(C(c3ccccc3)c3ccccc3)c(=O)n(C/C=C/COc3ccc(C(=O)O)cc3)c2c1
2 = O=C(O)c1ccc(OC/C=C/Cn2c(=O)n(C(c3ccccc3)c3ccccc3)c(=O)c3ccc(F)cc32)cc1
Lookup: Of 1 and 2 , which shows the smaller logD value? Kindly give the label for the entry you pick.
Found: 1

a = O=C(O)c1ccc(OC/C=C/Cn2c(=O)n(C(c3ccccc3)c3ccccc3)c(=O)c3ccc(N4CCOCC4)cc32)cc1
b = O=C(O)c1ccc(OC/C=C/Cn2c(=O)n(C(c3ccccc3)c3ccccc3)c(=O)c3ccc(Sc4ccccc4)cc32)cc1
Lookup: Which one would you say has the larger logD value: a , or b ? Kindly give the label for the entry you pick.
Found: b
(b: 4.8, a: 2.5)

1 = O=C(O)c1ccc(OC/C=C/Cn2c(=O)n(C(c3ccccc3)c3ccccc3)c(=O)c3ccc(Oc4ccccc4)cc32)cc1
2 = COC(=O)C1CCN(c2ccc3c(=O)n(C(c4ccccc4)c4ccccc4)c(=O)n(C/C=C/COc4ccc(C(=O)O)cc4)c3c2)CC1
Lookup: Of 1 and 2 , which shows the smaller logD value? Kindly give the label for the entry you pick.
Found: 2
(2: 3.3, 1: 4.8)
